- System: H9c2
- Assay Protocol: Cardioprotective activity against CoCl2-induced cellular hypoxia injury in rat H9c2 cells assessed as cell viability at 2.5 uM incubated for 24 hrs by CCK-8 assay (reference value: 51.80 +/- 2.58 %)
- Type: functional
- Condition Context: read-out: Activity
Field: class. Source value: viability at 2.5 µM. Ranges: low range: < 60%; mid range: ≥ 60% and < 70%; high range: ≥ 70%

- Structure Notation: "C=CCSSCCC(=O)O[C@H]1CC[C@]2(C)[C@H]3C[C@@H](O)[C@@H]4[C@@H]([C@@](C)(O)CCC=C(C)C)CC[C@@]4(C)[C@]3(C)C[C@H](O)[C@H]2C1(C)C"
  Label Value: "mid range"
- Structure Notation: "CC(C)(O)[C@H]1CC[C@@](C)([C@H]2CC[C@]3(C)[C@@H]2[C@H](O)C[C@@H]2[C@@]4(C)CC[C@H](OC(=O)c5ccc(N=C=S)cc5)C(C)(C)[C@@H]4CC[C@]23C)O1"
  Label Value: "mid range"
- Structure Notation: "CC(C)=CCC[C@](C)(O)[C@H]1CC[C@]2(C)[C@@H]1[C@H](O)C[C@@H]1[C@@]3(C)CC[C@H](OC(=O)c4ccc(N=C=S)cc4)C(C)(C)[C@@H]3[C@@H](O)C[C@]12C"
  Label Value: "low range"
- Structure Notation: "O=C(Nc1ccccc1-c1cn2c(CN3CCNCC3)csc2n1)c1cnc2ccccc2n1"
  Label Value: "high range"
- Structure Notation: "C=CCSSCCC(=O)O[C@H]1CC[C@]2(C)[C@H]3C[C@@H](O)[C@@H]4[C@@H]([C@]5(C)CC[C@H](C(C)(C)O)O5)CC[C@@]4(C)[C@]3(C)CC[C@H]2C1(C)C"
  Label Value: "high range"
- Structure Notation: "O=C(O)CCC(=O)Oc1ccc(-c2nc(=O)ss2)cc1"
  Label Value: "low range"
- Structure Notation: "CC(C)=CCC[C@](C)(O)[C@H]1CC[C@]2(C)[C@@H]1[C@H](O)C[C@@H]1[C@@]3(C)CC[C@H](O)C(C)(C)[C@@H]3[C@@H](O)C[C@]12C"
  Label Value: "mid range"
- Structure Notation: "CC(C)(O)[C@H]1CC[C@@](C)([C@H]2CC[C@]3(C)[C@@H]2[C@H](O)C[C@@H]2[C@@]4(C)CC[C@H](O)C(C)(C)[C@@H]4CC[C@]23C)O1"
  Label Value: "mid range"
- Structure Notation: "CC(C)(O)[C@@H]1CC[C@@](C)([C@H]2CC[C@]3(C)[C@@H]2[C@H](O)C[C@@H]2[C@@]4(C)CC[C@H](OC(=O)CCC(=O)Oc5ccc(-c6nc(=O)ss6)cc5)C(C)(C)[C@@H]4CC[C@]23C)O1"
  Label Value: "high range"
- Structure Notation: "O=C(O)CCC(=O)Oc1ccc(-c2cc(=S)ss2)cc1"
  Label Value: "high range"

====

Recorded viability at 2.5 µM for the following compounds
- Test system: H9c2
- Assay Protocol: Cardioprotective activity against CoCl2-induced cellular hypoxia injury in rat H9c2 cells assessed as cell viability at 2.5 uM incubated for 24 hrs by CCK-8 assay (reference value: 51.80 +/- 2.58 %)
- Format: functional
- Condition Context: read-out: Activity

- Structure Notation: "O=C(O)c1ccc(N=C=S)cc1"
  viability at 2.5 µM / %: 59.3
- Structure Notation: "CC(C)(O)[C@H]1CC[C@@](C)([C@H]2CC[C@]3(C)[C@@H]2[C@H](O)C[C@@H]2[C@@]4(C)CC[C@H](OC(=O)CCC(=O)Oc5ccc(-c6cc(=S)ss6)cc5)C(C)(C)[C@@H]4[C@@H](O)C[C@]23C)O1"
  viability at 2.5 µM / %: 68.4
- Structure Notation: "CC(C)(O)[C@H]1CC[C@@](C)([C@H]2CC[C@]3(C)[C@@H]2[C@H](O)C[C@@H]2[C@@]4(C)CC[C@H](OC(=O)CCC(=O)Oc5ccc(-c6nc(=O)ss6)cc5)C(C)(C)[C@@H]4CC[C@]23C)O1"
  viability at 2.5 µM / %: 84.7

====

- Tested on: H9c2
- Assay Protocol: Cardioprotective activity against CoCl2-induced cellular hypoxia injury in rat H9c2 cells assessed as cell viability at 2.5 uM incubated for 24 hrs by CCK-8 assay (reference value: 51.80 +/- 2.58 %)
- Format: functional
- Condition Context: read-out: Activity

- Structure Notation: "CC(C)(O)[C@@H]1CC[C@@](C)([C@H]2CC[C@]3(C)[C@@H]2[C@H](O)C[C@@H]2[C@@]4(C)CC[C@H](OC(=O)CCC(=O)Oc5ccc(-c6cc(=S)ss6)cc5)C(C)(C)[C@@H]4[C@@H](O)C[C@]23C)O1"
  viability at 2.5 µM [%]: 76.9
- Structure Notation: "CC(C)(O)[C@@H]1CC[C@@](C)([C@H]2CC[C@]3(C)[C@@H]2[C@H](O)C[C@@H]2[C@@]4(C)CC[C@H](OC(=O)CCC(=O)Oc5ccc(-c6nc(=O)ss6)cc5)C(C)(C)[C@@H]4[C@@H](O)C[C@]23C)O1"
  viability at 2.5 µM [%]: 83.7

====

- Test system: H9c2
- Assay Protocol: Cardioprotective activity against CoCl2-induced cellular hypoxia injury in rat H9c2 cells assessed as cell viability at 2.5 uM incubated for 24 hrs by CCK-8 assay (reference value: 51.80 +/- 2.58 %)
- Format: functional
- Condition Context: read-out: Activity
Recorded viability at 2.5 µM for the following compounds
Experimental Endpoint: viability at 2.5 µM (%)

- Structure Notation: "C=CCSSCCC(=O)O[C@H]1CC[C@]2(C)[C@H]3C[C@@H](O)[C@@H]4[C@@H]([C@]5(C)CC[C@H](C(C)(C)O)O5)CC[C@@]4(C)[C@]3(C)C[C@H](O)[C@H]2C1(C)C"
  Unit String: "%"
  Val: 62.9
- Structure Notation: "CC(C)(O)[C@H]1CC[C@@](C)([C@H]2CC[C@]3(C)[C@@H]2[C@H](O)C[C@@H]2[C@@]4(C)CC[C@H](OC(=O)CCC(=O)Oc5ccc(-c6nc(=O)ss6)cc5)C(C)(C)[C@@H]4[C@@H](O)C[C@]23C)O1"
  Unit String: "%"
  Val: 76
- Structure Notation: "Oc1ccc(/C=C/c2cc(O)cc(O)c2)cc1"
  Unit String: "%"
  Val: 64.1
